# tested_system: MLLT3 (Homo sapiens)
# procedure_summary: HTRF IC50 determination assay, MLLT3 / H3K9cro peptide displacement
# details: MLLT3 assay IC50 (nM), 6His tagged MLLT3, biotinylated H3K9cro peptide, compound 20 μM to 20 nM, 11 data points in duplicate
Assign IC50 to each entry below.

molecule | result
CN1CCCC1c1cn2cc(NC(=O)c3ccc(-n4cncn4)cc3)ccc2n1 (racemic) | 1500 to 20000 nM
CCN1CCCC1c1cn2cc(NC(=O)c3ccc4c(C)nn(C)c4c3)ncc2n1 (single isomer, unassigned) [Example 87] | 150 to 1500 nM

Reported IC50 of COC1CC(c2cn3cc(NC(=O)c4ccc5c(cnn5C)c4)ccc3n2)N(C)C1 (racemic) : 1500 to 20000 nM

---

Would you mind telling me the reported IC50 of each entry?
# tested_system: MLLT1 (Homo sapiens)
# procedure_summary: biochemical
# details: MLLT1 assay IC50 (nM), HTRF, 6His tagged MLLT1, biotinylated H3K9cro peptide; compound 20 μM to 20 nM, 11 data points in duplicate

Reference set (2 entries):
molecule | result
CN1CCCC1c1cn2cc(NC(=O)c3ccc4c(cnn4C)c3)ncc2n1 (racemic) | 150 to 1500 nM
CN1CCCC1c1cn2cc(NC(=O)c3ccc4ncoc4c3)ccc2n1 (racemic) | 150 to 1500 nM

Below are some molecules; for each one, tell me its IC50.
1. CN1CCC[C@@H]1c1cn2cc(NC(=O)c3cc4cnn(C)c4cn3)ncc2n1
2. CN1CCCC1c1cn2cc(NC(=O)c3ccn4ccnc4c3)ccc2n1 (racemic)
3. CCc1nn(C)c2cc(C(=O)Nc3cn4cc([C@H]5CCCN5C)nc4cn3)ccc12

stdout:
1: 1500 to 20000 nM; 2: 150 to 1500 nM; 3: 150 to 1500 nM

---

# tested_system: MLLT1 (Homo sapiens, UniProt Q03111)
# Sequence (Q03111 whole entry): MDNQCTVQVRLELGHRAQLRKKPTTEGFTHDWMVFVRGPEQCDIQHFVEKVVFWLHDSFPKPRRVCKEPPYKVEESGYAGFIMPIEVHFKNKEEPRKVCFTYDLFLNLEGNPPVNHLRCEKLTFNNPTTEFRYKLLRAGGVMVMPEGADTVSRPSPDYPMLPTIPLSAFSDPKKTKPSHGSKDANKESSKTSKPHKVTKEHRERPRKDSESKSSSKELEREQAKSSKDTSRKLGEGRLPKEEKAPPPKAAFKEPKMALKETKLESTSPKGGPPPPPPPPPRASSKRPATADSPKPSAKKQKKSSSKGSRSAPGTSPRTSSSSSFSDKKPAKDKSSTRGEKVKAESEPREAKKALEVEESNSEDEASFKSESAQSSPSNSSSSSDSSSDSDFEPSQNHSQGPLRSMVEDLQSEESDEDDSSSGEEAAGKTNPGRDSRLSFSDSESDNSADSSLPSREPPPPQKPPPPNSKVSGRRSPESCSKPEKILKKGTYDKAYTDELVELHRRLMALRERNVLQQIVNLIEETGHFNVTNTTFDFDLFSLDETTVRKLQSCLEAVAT
# procedure_summary: biochemical
# details: MLLT1 assay IC50 (nM), HTRF, 6His tagged MLLT1, biotinylated H3K9cro peptide; compound 20 μM to 20 nM, 11 data points in duplicate
Exercise: for every item that follows, state its recorded IC50.

compound | result
CN1CCCC1c1cn2cc(NC(=O)c3cc(-c4cnccn4)ccc3F)ccc2n1 (single isomer, unassigned) | 150 to 1500 nM
COc1cc2c(cnn2C)cc1C(=O)Nc1cn2cc([C@H]3CCCN3C)nc2cn1 | 150 to 1500 nM
CC1CC(c2cn3cc(NC(=O)c4ccc5c(cnn5C)c4)ccc3n2)N(C)C1 (racemic) | 150 to 1500 nM
Cc1nn(C)c2cc(C(=O)Nc3cn4cc(C5CC(C)(C)CN5C)nc4cn3)ccc12 (single isomer, unassigned) [Example 82] | < 150 nM
Cc1nn(C)c2cc(C(=O)Nc3cn4cc([C@H]5CCCN5C)nc4c(C4CC4)n3)c(F)cc12 | 150 to 1500 nM
CN1CCC[C@@H]1c1cn2cc(NC(=O)c3ccc4c(C5CC5)nn(C)c4c3)ncc2n1 | 150 to 1500 nM

Please find the next compound below.
Consider COc1ccc(-c2nc(C(=O)Nc3ccc4nc(C5CCCN5C)cn4c3)cs2)cc1 (racemic) . Its measured IC50 is 1500 to 20000 nM

---

# tested_system: MLLT1 (Homo sapiens)
# procedure_summary: biochemical
# details: MLLT1 assay IC50 (nM), HTRF, 6His tagged MLLT1, biotinylated H3K9cro peptide; compound 20 μM to 20 nM, 11 data points in duplicate
Counter-ions that a name gives are not always drawn.
reported_metric: IC50

Worked examples, 6 compounds total:
compound | reported_metric | result
CN1CCCC1c1cn2cc(NC(=O)c3cnc(-c4ccccc4)o3)ccc2n1 (racemic) | IC50 | 1500 to 20000 nM
CN1CCCC1c1cn2cc(NC(=O)c3ccc4c(cnn4C)c3)ccc2n1 (single isomer, unassigned) [Example 60] | IC50 | < 150 nM
Cc1c(C(=O)Nc2ccc3nc(C4CCCN4C)cn3c2)sc2nc[nH]c(=O)c12 (racemic) | IC50 | 1500 to 20000 nM
CN1CCCC1c1cn2cc(NC(=O)c3ccc(Cn4cccn4)cc3)ccc2n1 (racemic) | IC50 | 150 to 1500 nM
CN1CCCC1c1cn2cc(NC(=O)c3ccc(-n4cncn4)cc3)ccc2n1 (racemic) | IC50 | 150 to 1500 nM
CCc1nnc2cc(C(=O)Nc3ccc4nc(C5CCCN5C)cn4c3)ccn12 (racemic) [Example 35, formate] | IC50 | 1500 to 20000 nM

Below are some compounds; for each one, tell me its IC50.
1. Cc1nn(C)c2cc(C(=O)Nc3ccc4nc(C5CCCN5C)cn4c3)c(F)cc12 (racemic)
2. CN1CCCC1c1cn2cc(NC(=O)c3ccc4c(c3)nnn4C3CCCCC3)ccc2n1 (racemic)

stdout:
1: 150 to 1500 nM; 2: 150 to 1500 nM

---

# tested_system: MLLT1 (Homo sapiens)
# procedure_summary: biochemical
# details: MLLT1 assay IC50 (nM), HTRF, 6His tagged MLLT1, biotinylated H3K9cro peptide; compound 20 μM to 20 nM, 11 data points in duplicate
reported_metric: IC50

Consider the worked cases shown below.
molecule | tested_system | reported_metric | result
COCCN1CCCC1c1cn2cc(NC(=O)c3ccc4c(C)nn(C)c4c3)ccc2n1 (racemic) [Example 62] | MLLT1 (Homo sapiens) | IC50 | 1500 to 20000 nM
Cc1nn(C)c2cc(C(=O)Nc3cn4cc([C@H]5CCCN5C)nc4cn3)ccc12 [Example 70] | MLLT1 (Homo sapiens) | IC50 | 150 to 1500 nM

Please go through the list and note IC50 for each molecule.
1. Cc1noc2nc(C(=O)Nc3ccc4nc(C5CCCN5C)cn4c3)ccc12 (racemic) [Example 50]
2. Cc1nn(C)c2cc(C(=O)Nc3cn4cc(C5CC(C(C)(C)C)CN5C)nc4cn3)ccc12 (racemic) [Example 84]
3. Cc1nn(C)c2ncc(C(=O)Nc3ccc4nc(C5CCCN5C)cn4c3)c(Cl)c12 (racemic) [Example 15]
4. COc1ccc2nc(C(=O)Nc3ccc4nc(C5CCCN5C)cn4c3)sc2c1 (racemic) [Example 17]
5. CN1CC2(CC2)C[C@@H]1c1cn2cc(NC(=O)c3ccc4c(cnn4C)c3)ncc2n1 [Example 102]
6. CN1CCCC1c1cn2cc(NC(=O)c3ccc4c(cnn4C)c3Cl)ccc2n1 (racemic) [Example 52]

stdout:
1: 1500 to 20000 nM; 2: < 150 nM; 3: 1500 to 20000 nM; 4: 1500 to 20000 nM; 5: < 150 nM; 6: 1500 to 20000 nM

Give IC50 for each listed item.
1. COC1CC(c2cn3cc(NC(=O)c4ccc5c(cnn5C)c4)ccc3n2)N(C)C1 (racemic) [Example 65]
2. Cc1nn(C)c2nc(C(=O)Nc3ccc4nc(C5CCCN5C)cn4c3)ccc12 (racemic) [Example 31]

stdout:
1. 150 to 1500 nM
2. 1500 to 20000 nM

---

Would you mind telling me the reported IC50 of each entry?
# tested_system: MLLT3 (Homo sapiens, UniProt P42568)
# Sequence (P42568 whole entry): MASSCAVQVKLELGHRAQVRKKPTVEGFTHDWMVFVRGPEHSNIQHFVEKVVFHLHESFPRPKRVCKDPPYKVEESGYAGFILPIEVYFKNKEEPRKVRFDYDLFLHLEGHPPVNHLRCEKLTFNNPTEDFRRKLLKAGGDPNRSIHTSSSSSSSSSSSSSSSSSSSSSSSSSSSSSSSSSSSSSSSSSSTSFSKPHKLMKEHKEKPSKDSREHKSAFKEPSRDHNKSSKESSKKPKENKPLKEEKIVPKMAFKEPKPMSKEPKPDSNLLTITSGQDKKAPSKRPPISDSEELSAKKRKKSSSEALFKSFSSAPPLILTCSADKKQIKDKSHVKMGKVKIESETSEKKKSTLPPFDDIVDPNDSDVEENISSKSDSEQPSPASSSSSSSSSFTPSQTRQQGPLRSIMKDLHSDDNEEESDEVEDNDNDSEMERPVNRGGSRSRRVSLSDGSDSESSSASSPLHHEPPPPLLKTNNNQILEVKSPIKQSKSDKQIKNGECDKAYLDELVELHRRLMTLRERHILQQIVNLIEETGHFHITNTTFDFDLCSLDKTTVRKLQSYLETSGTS
# procedure_summary: HTRF IC50 determination assay, MLLT3 / H3K9cro peptide displacement
# details: MLLT3 assay IC50 (nM), 6His tagged MLLT3, biotinylated H3K9cro peptide, compound 20 μM to 20 nM, 11 data points in duplicate

compound | IC50
CN1CCCC1c1cn2cc(NC(=O)c3cc4ccncc4o3)ccc2n1 (racemic) [Example 54] | 1500 to 20000 nM
CN1CCCC1c1cn2cc(NC(=O)c3ccc(-c4ncon4)cc3)ccc2n1 (racemic) [Example 51] | 1500 to 20000 nM
CN1CCCC1c1cn2cc(NC(=O)c3ccn4cnnc4c3)ccc2n1 (racemic) [Example 33] | 1500 to 20000 nM
Cc1ncc(-c2ccc(F)c(C(=O)Nc3ccc4nc(C5CCCN5C)cn4c3)c2)s1 (single isomer, unassigned) [Example 23] | 150 to 1500 nM

Dear colleague, could you send me IC50 for each of the items below? Thanks.
1. CN1CCC[C@@H]1c1cn2cc(NC(=O)c3cc4cnn(C)c4cn3)ncc2n1 [Example 95]
2. COc1cc(NC(=O)c2ccc3c(C)nn(C)c3c2)cn2cc(C3CCCN3C)nc12 (racemic) [Example 1]
3. Cc1nn(C)c2cc(C(=O)Nc3cn4cc(C5CN(C)CCN5C)nc4cn3)ccc12 (single isomer, unassigned) [Example 67]
4. CN1CCCC1c1cn2cc(NC(=O)c3ccc4c(cnn4C)c3)ncc2n1 (racemic) [Example 68]
5. CN1CCCC1c1cn2cc(NC(=O)c3cnc4cc(Cl)ccc4c3)ccc2n1 (racemic) [Example 9]
6. Cc1nn(C)c2cc(C(=O)Nc3cn4cc([C@H]5CCCN5C)nc4c(C4CC4)n3)c(F)cc12 [Example 100]

stdout:
["1500 to 20000 nM", "150 to 1500 nM", "150 to 1500 nM", "150 to 1500 nM", "1500 to 20000 nM", "150 to 1500 nM"]
